Where do the numbers come from? From patent EP4772193A1.

# TARGET DESC: T1, recombinant human soluble gpNMB (recombinant human gpNMB-FLAG-His) (human, UniProt Q14956 23-498)
# T1 sequence: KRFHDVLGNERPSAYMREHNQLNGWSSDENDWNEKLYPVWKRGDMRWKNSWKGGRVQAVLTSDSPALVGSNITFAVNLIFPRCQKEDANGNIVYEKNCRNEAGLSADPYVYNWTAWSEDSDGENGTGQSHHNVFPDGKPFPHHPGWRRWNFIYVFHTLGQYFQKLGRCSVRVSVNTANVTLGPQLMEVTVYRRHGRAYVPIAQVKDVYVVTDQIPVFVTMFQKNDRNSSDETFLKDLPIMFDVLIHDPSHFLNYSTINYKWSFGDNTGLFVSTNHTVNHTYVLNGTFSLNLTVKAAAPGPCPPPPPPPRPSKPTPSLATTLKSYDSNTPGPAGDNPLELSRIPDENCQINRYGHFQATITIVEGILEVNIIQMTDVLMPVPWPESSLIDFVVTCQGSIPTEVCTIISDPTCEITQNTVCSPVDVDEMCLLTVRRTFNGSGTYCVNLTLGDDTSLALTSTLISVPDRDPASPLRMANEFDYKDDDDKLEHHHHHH
# EXPERIMENT: antigen ELISA, vs hGPN06-1_H1L1

{"BINDER": "hGPN06-1_H1L1 VL M32A (antibody, V domains shown) VH: QVQLVQSGAEVKKPGASVKVSCKASGYTFTDNWMGWVKQRPGQGLEWIGAIDPSDSFTNYNQNFKGRVTMTVDTSISTAYMELSRLRSDDSAVYFCTRSGYYGSPKLGGDYWGQGTLVTVSS VL: EIVLTQSPSSLSASVGDRVTITCSASSSISYAHWYQQKSGTAPKLLIYSTSNLASGVPSRFSGSGSGTDFTFTISSLQPEDAATYYCHQWNSYPCTFGGGTKLEIK", "Relative binding activity": 0.65}
{"BINDER": "hGPN06-1_H1L1 VL L53A (antibody, V domains shown) VH: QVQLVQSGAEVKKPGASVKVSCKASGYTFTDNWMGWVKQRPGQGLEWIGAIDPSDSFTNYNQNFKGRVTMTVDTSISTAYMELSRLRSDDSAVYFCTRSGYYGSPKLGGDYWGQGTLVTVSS VL: EIVLTQSPSSLSASVGDRVTITCSASSSISYMHWYQQKSGTAPKLLIYSTSNAASGVPSRFSGSGSGTDFTFTISSLQPEDAATYYCHQWNSYPCTFGGGTKLEIK", "Relative binding activity": 0.98}
{"BINDER": "hGPN06-1_H1L1 VL H33A (antibody, V domains shown) VH: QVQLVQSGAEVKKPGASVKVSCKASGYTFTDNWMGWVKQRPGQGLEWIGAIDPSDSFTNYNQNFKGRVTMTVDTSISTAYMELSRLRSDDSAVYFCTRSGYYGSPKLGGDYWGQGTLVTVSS VL: EIVLTQSPSSLSASVGDRVTITCSASSSISYMAWYQQKSGTAPKLLIYSTSNLASGVPSRFSGSGSGTDFTFTISSLQPEDAATYYCHQWNSYPCTFGGGTKLEIK", "Relative binding activity": 0.28}
{"BINDER": "hGPN06-1_H1L1 VL Q89A (antibody, V domains shown) VH: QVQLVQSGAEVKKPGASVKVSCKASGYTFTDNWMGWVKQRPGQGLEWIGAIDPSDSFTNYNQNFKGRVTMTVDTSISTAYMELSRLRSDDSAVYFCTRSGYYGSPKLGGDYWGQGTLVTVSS VL: EIVLTQSPSSLSASVGDRVTITCSASSSISYMHWYQQKSGTAPKLLIYSTSNLASGVPSRFSGSGSGTDFTFTISSLQPEDAATYYCHAWNSYPCTFGGGTKLEIK", "Relative binding activity": 0.06}
{"BINDER": "hGPN06-1_H1L1 VL S30A (antibody, V domains shown) VH: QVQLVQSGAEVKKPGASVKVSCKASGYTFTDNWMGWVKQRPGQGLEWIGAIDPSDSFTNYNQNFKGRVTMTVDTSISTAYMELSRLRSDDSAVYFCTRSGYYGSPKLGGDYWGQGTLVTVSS VL: EIVLTQSPSSLSASVGDRVTITCSASSSIAYMHWYQQKSGTAPKLLIYSTSNLASGVPSRFSGSGSGTDFTFTISSLQPEDAATYYCHQWNSYPCTFGGGTKLEIK", "Relative binding activity": 0.58}
{"BINDER": "hGPN06-1_H1L1 VL H88A (antibody, V domains shown) VH: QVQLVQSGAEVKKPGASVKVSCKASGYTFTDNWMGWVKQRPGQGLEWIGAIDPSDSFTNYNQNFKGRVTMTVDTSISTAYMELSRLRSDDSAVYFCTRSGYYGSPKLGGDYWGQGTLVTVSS VL: EIVLTQSPSSLSASVGDRVTITCSASSSISYMHWYQQKSGTAPKLLIYSTSNLASGVPSRFSGSGSGTDFTFTISSLQPEDAATYYCAQWNSYPCTFGGGTKLEIK", "Relative binding activity": 0.08}
{"BINDER": "hGPN06-1_H1L1 VL W90A (antibody, V domains shown) VH: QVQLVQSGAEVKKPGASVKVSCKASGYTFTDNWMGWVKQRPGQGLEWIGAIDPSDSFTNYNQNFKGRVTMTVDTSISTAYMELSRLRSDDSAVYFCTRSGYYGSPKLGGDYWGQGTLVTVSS VL: EIVLTQSPSSLSASVGDRVTITCSASSSISYMHWYQQKSGTAPKLLIYSTSNLASGVPSRFSGSGSGTDFTFTISSLQPEDAATYYCHQANSYPCTFGGGTKLEIK", "Relative binding activity": 0.13}
{"BINDER": "hGPN06-1_H1L1 VL S55A (antibody, V domains shown) VH: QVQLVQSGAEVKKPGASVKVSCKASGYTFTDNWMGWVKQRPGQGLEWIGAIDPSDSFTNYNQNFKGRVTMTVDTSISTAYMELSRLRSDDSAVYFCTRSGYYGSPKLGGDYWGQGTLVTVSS VL: EIVLTQSPSSLSASVGDRVTITCSASSSISYMHWYQQKSGTAPKLLIYSTSNLAAGVPSRFSGSGSGTDFTFTISSLQPEDAATYYCHQWNSYPCTFGGGTKLEIK", "Relative binding activity": 1}
{"BINDER": "hGPN06-1_H1L1 VL C95A (antibody, V domains shown) VH: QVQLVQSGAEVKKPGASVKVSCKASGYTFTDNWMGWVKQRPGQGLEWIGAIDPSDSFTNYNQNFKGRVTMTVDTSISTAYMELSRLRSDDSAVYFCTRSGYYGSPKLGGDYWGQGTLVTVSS VL: EIVLTQSPSSLSASVGDRVTITCSASSSISYMHWYQQKSGTAPKLLIYSTSNLASGVPSRFSGSGSGTDFTFTISSLQPEDAATYYCHQWNSYPATFGGGTKLEIK", "Relative binding activity": 0.45}
{"BINDER": "hGPN06-1_H1L1 VL S28A (antibody, V domains shown) VH: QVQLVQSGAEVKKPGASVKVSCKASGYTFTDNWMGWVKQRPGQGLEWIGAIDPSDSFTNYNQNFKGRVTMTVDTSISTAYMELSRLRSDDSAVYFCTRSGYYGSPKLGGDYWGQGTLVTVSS VL: EIVLTQSPSSLSASVGDRVTITCSASSAISYMHWYQQKSGTAPKLLIYSTSNLASGVPSRFSGSGSGTDFTFTISSLQPEDAATYYCHQWNSYPCTFGGGTKLEIK", "Relative binding activity": 1.18}
